Entries and their relative viability values follow.
test system: NCI-H2023; assay: relative viability (nuclei count vs DMSO), 5 days (fraction); higher = more cells survive; conditions: first compound 0.5 µM
Number only, no unit.

{"columns": ["molecule", "assayed_system", "relative viability"],
 "data": [
  ["COc1cc2nccc(Oc3ccc(NC(=O)Nc4cc(C)on4)c(Cl)c3)c2cc1OC [Tivozanib] + CCNC(=O)c1noc(-c2cc(C(C)C)c(O)cc2O)c1-c1ccc(CN2CCOCC2)cc1 [Luminespib] (partner 0.01 µM)", "NCI-H2023", 0.763]
]}

q: Bench note: what relative viability did Nc1ccn([C@@H]2O[C@H](CO)[C@@H](O)[C@@H]2O)c(=O)n1 [Cytarabine] + COc1cccc2cc(-c3nc([C@H]4CC[C@H](C(=O)O)CC4)n4ncnc(N)c34)[nH]c12 [OSI-027] (partner 0.5 µM) show?
a: 0.102

q: Subsequent entry: COc1cc2nccc(Oc3ccc(NC(=O)Nc4cc(C)on4)c(Cl)c3)c2cc1OC [Tivozanib] + N=C(N)NC(=N)NCCc1ccccc1 [Phenformin] (partner 250 µM)
a: 0.377
